tested on: Escherichia coli; assay: Antibacterial activity against Escherichia coli ATCC 25922 assessed as growth inhibition measured after 18 to 24 hrs by CLSI based broth microdilution method; assay type: functional; details: time 18-24 hrs
Peptide text beside a SMILES is read from it.
measurement-name: MIC

input: Answer with the recorded MIC of CC[C@H](C)[C@H](NC(=O)[C@@H]1CCCN1C(=O)[C@H](CC(C)C)NC(=O)[C@@H](N)Cc1ccccc1)C(=O)N[C@H](C(=O)N[C@@H](C)C(=O)N[C@@H](CCCCN)C(=O)N[C@@H](CC(C)C)C(=O)N[C@@H](CC(C)C)C(=O)N[C@@H](CCC(=O)O)C(=O)NCC(=O)N[C@@H](CC(C)C)C(=O)N[C@@H](CC(C)C)C(N)=O)C(C)C (H-FLPIVAKLLEGLL-NH2) only.
output: > 128 µM

###

test system: Escherichia coli; assay: Antibacterial activity against Escherichia coli ATCC 25922 assessed as growth inhibition measured after 18 to 24 hrs by CLSI based broth microdilution method; type: functional; conditions: time 18-24 hrs
Square brackets hold non-standard residues; d marks the D form. Peptide text beside a SMILES is read from it. ξ: configuration not given here. Ile(3ξ) = CCC(C)[C@H](N)C(=O)O; ξK = NCCCCC(N)C(=O)O
measurement-name: MIC (µM)
Give the number; µM is assumed, so skip it.

input: Answer with the recorded MIC of CCC(C)[C@H](NC(=O)[C@@H]1CCCN1C(=O)[C@H](CC(C)C)NC(=O)[C@@H](N)Cc1ccccc1)C(=O)N[C@H](C(=O)N[C@@H](CCCCN)C(=O)N[C@@H](CCCCN)C(=O)N[C@@H](CC(C)C)C(=O)N[C@@H](CC(C)C)C(=O)N[C@@H](CCCCN)C(=O)N[C@@H](CCC(=O)O)C(=O)N[C@@H](CC(C)C)C(=O)N[C@@H](CC(C)C)C(N)=O)C(C)C (stereo not given in full) (H-FLP[Ile(3ξ)]VKKLLKELL-NH2) only.
output: 8

input: Answer with the recorded MIC of CCC(C)[C@H](NC(=O)[C@@H]1CCCN1C(=O)[C@H](CC(C)C)NC(=O)[C@@H](N)Cc1ccccc1)C(=O)N[C@H](C(=O)N[C@@H](CCCCN)C(=O)N[C@@H](CCCCN)C(=O)N[C@@H](CC(C)C)C(=O)N[C@@H](CC(C)C)C(=O)N[C@@H](CCC(=O)O)C(=O)N[C@@H](CCCCN)C(=O)N[C@@H](CC(C)C)C(=O)N[C@@H](CC(C)C)C(N)=O)C(C)C (stereo not given in full) (H-FLP[Ile(3ξ)]VKKLLEKLL-NH2) only.
output: 8

input: Answer with the recorded MIC of CC(C)C[C@H](NC(=O)[C@H](CC(C)C)NC(=O)C(CCCCN)NC(=O)[C@H](CCC(=O)O)NC(=O)[C@H](CC(C)C)NC(=O)[C@H](CC(C)C)NC(=O)[C@H](CCCCN)NC(=O)[C@H](CCCCN)NC(=O)[C@@H](NC(=O)[C@H](CCCCN)NC(=O)[C@@H]1CCCN1C(=O)[C@H](CC(C)C)NC(=O)[C@@H](N)Cc1ccccc1)C(C)C)C(N)=O (stereo not given in full) (H-FLPKVKKLLE[ξK]LL-NH2) only.
output: 8

input: Answer with the recorded MIC of CC[C@H](C)[C@H](NC(=O)[C@@H]1CCCN1C(=O)[C@H](CC(C)C)NC(=O)[C@@H](N)Cc1ccccc1)C(=O)N[C@H](C(=O)N[C@@H](C)C(=O)N[C@@H](CCCCN)C(=O)N[C@@H](CC(C)C)C(=O)N[C@@H](CC(C)C)C(=O)N[C@@H](CO)C(=O)NCC(=O)N[C@@H](CC(C)C)C(=O)N[C@@H](CC(C)C)C(N)=O)C(C)C (H-FLPIVAKLLSGLL-NH2) only.
output: 32

Numbers sourced from ChEMBL document CHEMBL5108051.
